From: PubChem BioAssay AID588627

- tested-on: Mas-related G-protein coupled receptor member X1 (Homo sapiens)
- assay-procedure: MrgX1 activation via calcium signaling – HEK293 cells, Fluo-4 calcium flux, primary screen (AID 588627)
- test-context: Fluo-4 calcium fluorescence, agonist mode, at 10 µM
In all, about 310,000 compounds went through this assay and about 1,400 (0.45%) were called active.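 How the source made its calls: active means calcium response B-score plate-corrected fluorescence ratio at least 3 library SD, with starting fluorescence B-score inside 5 SD; inactive means the rest.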 The full list was thinned out, with actives kept by preference.
Please state which outcome applies, choosing from active, inactive

Here are 3 molecules together with their reported answers.
molecule: COCCCNc1nc2ccccc2nc1NS(=O)(=O)c1ccc(F)cc1
group-label: inactive
--
molecule: O=C1/C(=C/c2ccc(F)cc2)SC(=S)N1NS(=O)(=O)c1ccccc1
group-label: active
--
molecule: Cc1ccc(NC(=O)COC(=O)C2C3CC4OC(=O)C2C4C3)cc1Cl (stereo not given)
group-label: inactive

How did this test come out for O=C1/C(=C/c2ccc(F)cc2)SC(=S)N1CCCC(=O)N1CCCCC1CCO (stereo not given) ? inactive

// query: Cc1ccc2nc(/C(C#N)=C\c3ccc(OC(=O)c4cccs4)cc3)[nH]c2c1 inactive

====

- tested-on: Mas-related G-protein coupled receptor member X1 (Homo sapiens)
- assay-procedure: MrgX1 activation via calcium signaling – HEK293 cells, Fluo-4 calcium flux, primary screen (AID 588627);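 on B-score: B-score of the peak-minus-trough calcium fluorescence change over baseline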
- test-context: Fluo-4 calcium fluorescence, agonist mode, at 10 µM; stronger effect = higher value
The whole screen tested about 310,000 compounds, of which about 1,400 (0.45%) were called active. The sample holds actives, similar compounds and a random draw of the others, so the mix is not that of the screen.
measurement-kind: B-score

molecule: CS(=O)(=O)N(CC(=O)N1CCCCCC1)c1cccc(Cl)c1Cl
data-value: inactive
--
molecule: OC(C#CCN1CCOCC1)(c1ccccc1)C1CCCCC1 (configuration not stated)
data-value: inactive
--
molecule: OCc1ccc(OCCCOc2cccc3cccnc23)cc1
data-value: 27.9 (active)
--
molecule: CC(=O)N1c2ccccc2N(Cc2ccc([N+](=O)[O-])cc2)C(=O)C1(C)C
data-value: inactive
--
molecule: Cc1ccnc(-n2sc3ccccc3c2=O)n1
data-value: 37 (active)

Entry O=C(COC(=O)/C=C/c1cccc(Cl)c1)NCCc1ccccc1 has what B-score? inactive

// query: O=C(Cc1ccc(Cl)c(Cl)c1)Nc1ccc(SC(F)F)cc1 inactive

// query: COc1ccccc1N1CC(C(=O)Nc2nnc(SCC(=O)NC(C)C)s2)CC1=O (configuration not stated) inactive

// query: Cc1ccc(CS(=O)(=O)CCC(=O)NC2CC2)cc1 inactive

// query: O=[N+]([O-])c1ccc2c(c1)C(O)n1nc(-c3ccccc3)nc1S2 (configuration not stated) inactive

// query: Cc1[nH]n(-c2cccc(Cl)c2)c(=O)c1/C=N/n1c(C)nc2ccccc2c1=O inactive

// query: CN(c1ccccc1)c1ccc(/C=c2\s/c(=C(/C#N)C(=O)C(C)(C)C)n(Cc3ccco3)c2=O)cc1 193 (active)

// query: CCOC(=O)/C=c1\s/c(=C\c2ccc(C#N)cc2)c(=O)n1CC(=O)Nc1cccc(C)c1C inactive

// query: COC(=O)CNC(c1ccccc1Cl)c1cc(Br)ccc1NC(=O)CCN1CCOCC1 (configuration not stated) inactive

// query: Cc1cccc(-c2nc(Nc3ccc(O)cc3)c3ccccc3n2)c1 inactive

// query: O=C(Nc1nnc(-c2ccccc2)o1)c1cc(-c2cccs2)nc2ccccc12 26.9 (active)

// query: CCN(CC)c1ccc2oc(=O)c(C)nc2c1 27 (active)

// query: Cc1ccc(-n2[nH]c(C)c(/C=N/N3C(=O)c4cccc5cccc(c45)C3=O)c2=O)cc1 104 (active)

// query: O=C1NC(=O)C2C1C(c1ccc([N+](=O)[O-])cc1)=NN2Cc1ccccc1 (configuration not stated) 42.5 (active)

// query: O=C(Cc1csc(Nc2nc(=S)[nH]c3ccccc23)n1)NCCCN1CCN(c2cccc(Cl)c2)CC1 inactive

// query: COc1cc2c3c(c1)/C(=C1/SC(=S)NC1=O)C(=O)N3C(C)(C)C=C2C inactive

// query: CCCCn1c(N)c(N(CCOC)C(=O)c2cccc(S(=O)(=O)N3CCCCC3)c2)c(=O)[nH]c1=O inactive

// query: CCC(C)c1ccccc1N1CC(C(=O)N2CCN(S(=O)(=O)c3ccc(F)cc3)CC2)CC1=O (configuration not stated) inactive

// query: O=C(NCCN1CCOCC1)c1cc(-c2cccs2)nc2ccccc12 inactive

// query: CCCOc1ccc(Cn2ccnc2)cc1[N+](=O)[O-] inactive

// query: CC1CCCN(S(=O)(=O)c2ccc(C(=O)Nc3nnc(-c4ccncc4)o3)cc2)C1 (configuration not stated) inactive

// query: O=c1nc2s/c(=C\c3ccco3)c(=O)n2nc1Cc1ccccc1 inactive

====

- tested-on: Mas-related G-protein coupled receptor member X1 (Homo sapiens) (UniProt Q96LB2)
- Sequence (Q96LB2 whole entry, looked up): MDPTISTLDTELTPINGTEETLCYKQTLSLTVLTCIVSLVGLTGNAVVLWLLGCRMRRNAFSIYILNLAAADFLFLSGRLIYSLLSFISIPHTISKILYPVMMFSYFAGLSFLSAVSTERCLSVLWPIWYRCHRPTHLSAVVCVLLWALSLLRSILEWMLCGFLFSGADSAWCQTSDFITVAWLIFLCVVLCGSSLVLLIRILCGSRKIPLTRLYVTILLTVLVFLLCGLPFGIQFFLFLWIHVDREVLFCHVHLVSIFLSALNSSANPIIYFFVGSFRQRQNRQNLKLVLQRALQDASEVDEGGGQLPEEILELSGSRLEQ
- assay-procedure: MrgX1 activation via calcium signaling – HEK293 cells, Fluo-4 calcium flux, primary screen (AID 588627)
- test-context: Fluo-4 calcium fluorescence, agonist mode, at 10 µM
In all, about 310,000 compounds went through this assay and about 1,400 (0.45%) were called active.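 Rule for the calls: active = calcium response B-score plate-corrected fluorescence ratio at least 3 library SD, with starting fluorescence B-score inside 5 SD; inactive = the rest.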 Only a selection was taken, and actives are over-represented in it overall.
Please state which outcome applies, choosing from 1 for active, -1 for inactive

How did this test come out for Cc1ccc(-c2nn(-c3ccccc3)cc2/C=C2\SC(=S)N(CCCCCC(=O)O)C2=O)o1 ? -1

// query: CC(=O)N/C(=C/c1ccc(Cl)cc1)C(=O)NCCc1c[nH]c2ccccc12 -1

// query: COc1ccc(C(=O)NC(=S)NNC(=O)CCc2ccccc2)cc1 1

// query: CN(C)c1ccc(CNC(=O)CN2C(=O)COc3ccc(S(=O)(=O)N4CCCC4)cc32)cc1 -1

// query: CC(C)(C)SCCNC(=O)c1cccc([N+](=O)[O-])c1 -1

// query: CC1CCCCC1NC(=O)CN1CCC(O)(c2ccc3c(c2)OCO3)CC1 (stereo not given) -1

// query: Cc1ccsc1C1C(C#N)=C(N)OC2=C1C(=O)CC(C)(C)C2 (stereo not given) -1

// query: CCN(CC)S(=O)(=O)c1ccc(N2CC(C(=O)NCc3cccnc3)CC2=O)cc1 (stereo not given) -1

====

- tested-on: Mas-related G-protein coupled receptor member X1 (Homo sapiens) (UniProt Q96LB2)
- assay-procedure: MrgX1 activation via calcium signaling – HEK293 cells, Fluo-4 calcium flux, primary screen (AID 588627)
- test-context: Fluo-4 calcium fluorescence, agonist mode, at 10 µM
About 1,400 (0.45%) of roughly 310,000 compounds were called active.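 The calls were made as follows: active = calcium response B-score plate-corrected fluorescence ratio at least 3 library SD, with starting fluorescence B-score inside 5 SD; inactive = the rest.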 The sample holds actives, similar compounds and a random draw of the others, so the mix is not that of the screen.
Please state which outcome applies, choosing from active, inactive

Here are 4 compounds together with their reported answers.
compound: Cc1cc2nc(C(F)(F)F)cc(-c3cccs3)n2n1
group-label: inactive
--
compound: CC(=O)NCC(O)c1ccc([N+](=O)[O-])cc1 (stereo unspecified)
group-label: inactive
--
compound: Cn1c2ccccc2c2cc(/C=C(\NC(=O)c3ccccc3)C(=O)NCC(=O)O)ccc21
group-label: active
--
compound: Cc1nc2ccccn2c(=O)c1NC(=O)c1cccs1
group-label: inactive

How did this test come out for CCC(C)c1ccc(O)c(/C=N/O)c1 (stereo unspecified) ? inactive

// query: CCOC(=O)CNC(=O)/C(=C\c1ccc(F)cc1)NC(=O)c1ccccc1 inactive

====

- tested-on: Mas-related G-protein coupled receptor member X1 (Homo sapiens) (UniProt Q96LB2)
- assay-procedure: MrgX1 activation via calcium signaling – HEK293 cells, Fluo-4 calcium flux, primary screen (AID 588627)
- test-context: Fluo-4 calcium fluorescence, agonist mode, at 10 µM
Out of some 310,000 compounds screened, about 1,400 (0.45%) were called active.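 The calls were made as follows: active = calcium response B-score plate-corrected fluorescence ratio at least 3 library SD, with starting fluorescence B-score inside 5 SD; inactive = the rest.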 What follows is part of a selection rich in actives, with near analogues and random picks from the rest.
Please state which outcome applies, choosing from 1 (yes) for active, 0 (no) for inactive

Here are 10 molecules together with their reported answers.
molecule: COc1cc(NC(=O)c2ccc3c(c2)OCO3)ccc1NC(=O)c1cccs1
tested-on: Mas-related G-protein coupled receptor member X1 (Homo sapiens) (UniProt Q96LB2)
group-label: 0 (no)
--
molecule: COc1cc(/C=C2/C(=O)NN(c3ccc(F)cc3)C2=O)cc([N+](=O)[O-])c1O
tested-on: Mas-related G-protein coupled receptor member X1 (Homo sapiens) (UniProt Q96LB2)
group-label: 0 (no)
--
molecule: CCN1/C(=C/c2ccc3ccc(C)cc3[n+]2CC)Sc2ccccc21
tested-on: Mas-related G-protein coupled receptor member X1 (Homo sapiens) (UniProt Q96LB2)
group-label: 1 (yes)
--
molecule: OCCN(Cc1ccccc1)Cc1ccc(Cl)cc1
tested-on: Mas-related G-protein coupled receptor member X1 (Homo sapiens) (UniProt Q96LB2)
group-label: 0 (no)
--
molecule: Cc1ccccc1NC(=O)Cn1cc(C(=O)C2CC2)c2ccccc21
tested-on: Mas-related G-protein coupled receptor member X1 (Homo sapiens) (UniProt Q96LB2)
group-label: 0 (no)
--
molecule: O=C(CN1C(=O)NC2(CCCCC2)C1=O)NCCc1c[nH]c2ccccc12
tested-on: Mas-related G-protein coupled receptor member X1 (Homo sapiens) (UniProt Q96LB2)
group-label: 0 (no)
--
molecule: CCc1noc(C)c1C(=O)Nc1nc(-c2ccccc2)cs1
tested-on: Mas-related G-protein coupled receptor member X1 (Homo sapiens) (UniProt Q96LB2)
group-label: 0 (no)
--
molecule: COc1ccc(C(=O)NNC(=S)NC(=O)c2ccccc2[N+](=O)[O-])cc1
tested-on: Mas-related G-protein coupled receptor member X1 (Homo sapiens) (UniProt Q96LB2)
group-label: 0 (no)
--
molecule: COc1ccc(S(=O)(=O)N2CCN(c3ncnc4c(-c5ccccc5)nsc34)CC2)cc1
tested-on: Mas-related G-protein coupled receptor member X1 (Homo sapiens) (UniProt Q96LB2)
group-label: 0 (no)
--
molecule: Cc1ccc(N=C2SCCCN2C(=O)c2cccc(N3C(=O)CCC3=O)c2)cc1Cl
tested-on: Mas-related G-protein coupled receptor member X1 (Homo sapiens) (UniProt Q96LB2)
group-label: 0 (no)

Could you now look at the following molecule, please?
How did this test come out for Cc1ccc(NS(=O)(=O)c2cccs2)cc1S(=O)(=O)N1CCCCCC1 ? 0 (no)
